List of TGI values.
- System: OVCAR-3 ovarian
- Experiment notes: NCI tumour cell line growth inhibition, 48 h

Query: Dear colleague, I am looking for the recorded TGI of the following compound: Fc1nc(Sc2ncnc3nc[nH]c23)nc(-c2c3ccccc3c3sc4ccccc4n23)n1
Result: > 100 µM

Query: Dear colleague, I am looking for the recorded TGI of the following compound: C=C(C)C1CCC2(C)C1CCC1(C)C2CCC2C3(C)C4OC(OC4=O)C(C)(C)C3CCC21C (stereo not given)
Result: > 100 µM

Query: Dear colleague, I am looking for the recorded TGI of the following compound: CCCCCCCCCCCCCCCC[N+](C)(C)CCl
Result: 14.6 µM

Query: Dear colleague, I am looking for the recorded TGI of the following compound: C[C@]12CC[C@H]3[C@@H](CCC4=C/C(=N/OCCN5CCCCC5)CC[C@@]43C)[C@@H]1CC[C@@H]2O
Result: 32 µM

Query: Dear colleague, I am looking for the recorded TGI of the following compound: Cc1c(C(=O)/C=C/c2ccc3c(c2)OCO3)[n+](=O)c2ccccc2n1[O-]
Result: 83.3 µM
